This collection of values is drawn from ChEMBL document CHEMBL3856250.

- procedure_text: Distribution coefficient, log D of the compound at pH 7.0 by HPLC method
- Format: physicochemical
- condition_context: octanol/water
assay_endpoint: logD
Enter the number alone.

Query: # query: logD of entry Cc1c(-c2c(F)cc(C(N)=O)c3[nH]c4c(c23)CC[C@H](C(C)(C)O)C4)cccc1-n1c(=O)c2cccc(F)c2n(C)c1=O (atropisomer R)
Response: 4.06

* * *

- procedure_text: AUC in mouse at 6 mg/kg, po
- Type: ADME, organism-based
- condition_context: in vivo
assay_endpoint: AUC (µM·h)
Quick note: give the figure in µM·h, leave out the unit.

Query: # query: AUC of entry Cc1c(-c2c(F)cc(C(N)=O)c3[nH]c4c(c23)CC[C@H](C(C)(C)O)C4)cccc1-n1c(=O)c2cccc(F)c2n(C)c1=O (atropisomer R)
Response: 39

* * *

- procedure_text: Solubility of the compound in fasted state stimulated intestinal fluid
- Format: ADME
- condition_context: fasted state simulated intestinal fluid (FaSSIF)
assay_endpoint: solubility (µg/mL)
Quick note: give the figure in µg/mL, leave out the unit.

Query: # query: solubility of entry Cc1c(-c2c(F)cc(C(N)=O)c3[nH]c4c(c23)CC[C@H](C(C)(C)O)C4)cccc1-n1c(=O)c2cccc(F)c2n(C)c1=O (atropisomer R)
Response: 18

* * *

- procedure_text: MRT in dog at 1 mg/kg, iv
- Assay type: ADME, organism-based, Canis lupus familiaris
- condition_context: in vivo
assay_endpoint: MRT (h)
Quick note: give the figure in h, leave out the unit.

Query: # query: MRT of entry Cc1c(-c2c(F)cc(C(N)=O)c3[nH]c4c(c23)CC[C@H](C(C)(C)O)C4)cccc1-n1c(=O)c2cccc(F)c2n(C)c1=O (atropisomer R) [BMS-986142]
Response: 18
